assay: in vivo; conditions: mouse, mice, oral, read-out: Acute oral toxicity on mice LD50
outcome.measure: LD50 (mg/kg)
Answers are plain numbers, in mg/kg.

>>> df
                  smiles_code  outcome_measure  output_unit  readout_number
0  NNC(=O)c1cnn(-c2cccnn2)c1N             LD50        mg/kg             200

Below are some compounds; for each one, tell me its LD50.
1. CN(N)c1ccc(-n2ncc(C#N)c2N)nn1
2. NNC(=O)c1cnn(-c2ccc(N(CCO)CCO)nn2)c1N
3. CCOC(=O)c1cnn(-c2ccc(NCc3ccccc3)nn2)c1N

Response line:
[200, 250, 1000]
